The reported measurements were obtained from ChEMBL document CHEMBL4373737.

System: HCT-116
TEST: Cytotoxicity against human HCT116 cells assessed as reduction in cell growth
Format: functional, cell-based
EXPERIMENTAL_READOUT: IC50

# value of IC50, HCT-116, item COc1ccc(-c2coc(=O)n2-c2cc(OC)c(OC)c(OC)c2)cc1N = 1.1 to 4.3 nM

====

TEST: Hemolytic activity in human erythrocytes at 10 ug/ml after 1 hr relative to control
Type: ADME, cell-based, Erythrocyte
CONDITION_DESCRIPTION: read-out: Activity
EXPERIMENTAL_READOUT: hemolysis at 1 h, 10 ug/ml

Per the record, COc1cc(-c2csc(=S)n2Cc2ccccc2Cl)cc(OC)c1OC has hemolysis at 1 h, 10 ug/ml of < 25%

The value of hemolysis at 1 h, 10 ug/ml measured for the molecule COc1cc(-c2csc(=S)n2Cc2ccc(Cl)cc2)cc(OC)c1OC turned out to be < 25%

====

For each of the compounds below, state its IC50.
System: SK-OV-3
TEST: Cytotoxicity against human SKOV3 cells assessed as reduction in cell viability after 48 hrs by MTT assay
Type: functional, cell-based
CONDITION_DESCRIPTION: SK-OV-3, 48 h
Enter your answer as a number in µM; do not include the unit.

// sample COc1cc(C2(O)CSC(=S)N2C)cc(OC)c1OC (centres undefined) , its IC50 was 13.4

Given item COc1cc(-c2csc(=S)n2-c2ccc(Cl)c(Cl)c2)cc(OC)c1OC , the value recorded as its IC50 is 17.9

In plain terms, COc1cc(-c2csc(=S)n2Cc2ccccc2)cc(OC)c1OC has a documented IC50 of 17.5

Reported IC50 ( COc1cc(-c2csc(=S)n2C)cc(OC)c1OC ) = 23.4

Summary for this compound, COc1cc(C2(O)CSC(=S)N2Cc2ccc(Cl)cc2)cc(OC)c1OC (centres undefined) : IC50 is 18.1

Record COc1cc([C@@H]2c3cc4c(cc3[C@@H](O[C@@H]3O[C@@H]5CO[C@@H](C)O[C@H]5[C@H](O)[C@H]3O)[C@H]3COC(=O)[C@H]23)OCO4)cc(OC)c1O [ETOPOSIDE] . Reported IC50: 9.2

Short answer for COc1cc(-c2csc(=S)n2Cc2ccccc2Cl)cc(OC)c1OC : IC50 was 13.5

Looking up COc1cc(C2(O)CSC(=S)N2Cc2ccccc2)cc(OC)c1OC (centres undefined) , I see its IC50 listed as 13.8

Value of measured IC50 for the entry COc1cc(C2(O)CSC(=S)N2Cc2ccc(F)cc2)cc(OC)c1OC (centres undefined) : 12.4

The recorded IC50 for entry COc1cc(-c2csc(=S)n2Cc2ccc(F)cc2)cc(OC)c1OC equals 18.6

Record COc1cc(C2(O)CSC(=S)N2Cc2ccccc2Cl)cc(OC)c1OC (centres undefined) . Reported IC50: 12.1

Entry under test: COc1cc(-c2csc(=S)n2Cc2ccc(O)cc2)cc(OC)c1OC . Its IC50 was 18.7

According to the records, this compound COc1cc(-c2csc(=S)n2-c2ccc(Cl)cc2)cc(OC)c1OC displays IC50 of 17.7

get_value(item= COc1cc(-c2csc(=S)n2Cc2ccc(Cl)cc2)cc(OC)c1OC , readout=IC50) returns 18.1
